Test system: vertebral artery blood flow of a dog
assayExplanation: Vertebral artery blood flow increasing activity
Assay type: in vivo, dog (mongrel)
particulars: i.v., amount with same activity as 1 mg/kg (i.v.) papaverine hydrochloride, ratio to papaverine hydrochloride
Binary call on Effect ratio with cut-off 400: strictly below means 1.0, and equality or higher means 0.0.

Example cases with answers are listed next.
{"columns": ["compound", "classification"],
 "data": [
  ["CC1=C(C(=O)OCCOC/C=C/c2ccc(Cc3cccnc3)cc2)C(c2cccc([N+](=O)[O-])c2)C(C(=O)OC(C)C)=C(C)N1 (stereo not drawn)", 1.0],
  ["CCOC(=O)C1=C(C)NC(C)=C(C(=O)OCC(C)(C)COC/C(C)=C/c2ccc(Cc3cccnc3)cc2)C1c1cccc([N+](=O)[O-])c1 (stereo not drawn)", 1.0]
]}

Q. Decide: Effect ratio of COCCOC(=O)C1=C(C)NC(C)=C(C(=O)OCCN(C)C/C(C)=C/c2ccc(Cc3cccnc3)cc2)C1c1cccc([N+](=O)[O-])c1 (stereo not drawn) strictly below 400?
A. 1.0

Q. CCOC(=O)C1=C(C)NC(C)=C(C(=O)OCCN(C)C/C(C)=C/c2ccc(Oc3cccnc3)cc2)C1c1cccc([N+](=O)[O-])c1 (stereo not drawn) , same question.
A. 0.0

Q. COC(=O)C1=C(C)NC(C)=C(C(=O)OCC(C)(C)COC/C(C)=C/c2ccc(Cc3cccnc3)cc2)C1c1cccc([N+](=O)[O-])c1 (stereo not drawn) , same question.
A. 0.0

Q. CC1=C(C(=O)OCCOC/C(C)=C/c2ccc(Cc3cccnc3)cc2)C(c2cccc([N+](=O)[O-])c2)C(C(=O)OC(C)C)=C(C)N1 (stereo not drawn) , same question.
A. 0.0
